assay: NCI Yeast Anticancer Drug Screen. Data for the mec2-1 strain (AID 157); settings: S. cerevisiae mec2-1 strain, at 50.0 µM, stronger effect = higher value
This is part of a sample that, as a whole, favours compounds with a hit. Of some 79,000 tested, about 15% had one in any assay. Where a SMILES comes first, the peptide text is derived from it. The star is where a group is joined. Cbz = O=C(OCc1ccccc1)*
# growth inhibition per entry
Parameter measured: growth inhibition (%)

>>> print(df.to_string())
                                    compound  measured_value
 0  NC(Cc1c[nH]c2ccc(F)cc12)C(=O)O (configuration not stated)           -17.5
 1  COC(=O)C1CCC(=O)N1Cc1csc(-c2ccccc2)n1 (configuration not stated)           -6.95
 2              CCCCC[N+](CCCCC)(CCCCC)CCCCC           -16.4
 3                              COc1ccccc1CO           -13.8
 4  CC(C)C(NC(=O)C(Cc1ccc(O)cc1)NC(=O)OCc1ccccc1)C(=O)O (stereo not drawn) (Cbz-Tyr-Val-OH; configuration not given here)           -3.25
 5            O=C(Nc1ccccc1F)Oc1ccc(Cl)cc1Cl            14.7
 6         Cc1cc(C)c2c(c1)CC(C)(C)C(=O)OC2=O           -23.9
 7                S=C(NCc1ccccc1)Nc1ncn[nH]1            0.25
 8   C/C(CCc1cccc([N+](=O)[O-])c1)=N\NC(N)=O           -10.5
 9  Cc1cccc2c1NC(O)c1cccn1C2=O (configuration not stated)            2.75
10  COc1ccc2c(c1)/C(=C/c1cc(OC)c(OC)c(OC)c1)C(=O)N2           -27.2
11                     O=C(O)c1cc(Cl)c(Cl)s1           -20.1

Where do the numbers come from? From PubChem BioAssay (NCI).
